Target: Torpedo nAChR (Tetronarce californica, UniProt P02710+P02712+P02714+P02718)
Sequence (P02718 22-522): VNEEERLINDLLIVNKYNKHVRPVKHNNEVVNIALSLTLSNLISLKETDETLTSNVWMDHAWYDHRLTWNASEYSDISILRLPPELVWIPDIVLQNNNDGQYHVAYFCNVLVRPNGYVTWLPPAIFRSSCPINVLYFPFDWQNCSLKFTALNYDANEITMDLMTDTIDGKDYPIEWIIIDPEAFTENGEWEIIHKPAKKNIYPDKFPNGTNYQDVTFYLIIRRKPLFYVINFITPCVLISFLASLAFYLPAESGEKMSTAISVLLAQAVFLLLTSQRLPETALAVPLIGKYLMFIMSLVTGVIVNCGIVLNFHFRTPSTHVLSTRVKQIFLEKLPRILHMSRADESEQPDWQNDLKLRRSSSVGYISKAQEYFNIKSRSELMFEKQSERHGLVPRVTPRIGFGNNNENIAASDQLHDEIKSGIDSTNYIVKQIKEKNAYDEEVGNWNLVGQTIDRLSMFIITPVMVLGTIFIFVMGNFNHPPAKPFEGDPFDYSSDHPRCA
Sequence (P02714 18-506): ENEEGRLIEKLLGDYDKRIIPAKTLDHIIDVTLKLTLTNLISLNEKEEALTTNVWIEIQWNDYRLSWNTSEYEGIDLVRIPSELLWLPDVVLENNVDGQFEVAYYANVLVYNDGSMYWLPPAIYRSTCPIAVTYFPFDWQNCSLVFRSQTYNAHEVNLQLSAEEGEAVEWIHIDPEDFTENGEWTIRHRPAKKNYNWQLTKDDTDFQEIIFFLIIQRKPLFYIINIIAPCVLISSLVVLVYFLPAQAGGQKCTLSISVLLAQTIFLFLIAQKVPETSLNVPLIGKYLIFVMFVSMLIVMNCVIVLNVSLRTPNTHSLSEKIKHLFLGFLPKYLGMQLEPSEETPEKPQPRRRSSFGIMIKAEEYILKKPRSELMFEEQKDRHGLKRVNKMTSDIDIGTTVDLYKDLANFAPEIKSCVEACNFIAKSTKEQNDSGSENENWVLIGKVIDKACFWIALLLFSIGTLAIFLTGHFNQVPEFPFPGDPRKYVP
Sequence (P02712 25-493): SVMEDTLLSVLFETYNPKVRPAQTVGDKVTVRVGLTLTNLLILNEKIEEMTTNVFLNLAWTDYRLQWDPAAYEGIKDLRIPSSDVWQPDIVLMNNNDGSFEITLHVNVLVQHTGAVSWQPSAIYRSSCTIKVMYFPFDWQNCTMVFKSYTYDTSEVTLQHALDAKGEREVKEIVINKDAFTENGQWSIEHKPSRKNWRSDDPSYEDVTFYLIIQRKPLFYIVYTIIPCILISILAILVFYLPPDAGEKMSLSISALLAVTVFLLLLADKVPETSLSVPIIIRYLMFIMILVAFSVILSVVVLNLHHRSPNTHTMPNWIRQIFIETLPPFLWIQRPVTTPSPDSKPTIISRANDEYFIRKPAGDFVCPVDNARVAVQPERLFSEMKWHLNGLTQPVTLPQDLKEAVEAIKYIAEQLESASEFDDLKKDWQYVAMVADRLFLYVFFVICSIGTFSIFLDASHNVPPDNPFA
Sequence (P02710 25-461): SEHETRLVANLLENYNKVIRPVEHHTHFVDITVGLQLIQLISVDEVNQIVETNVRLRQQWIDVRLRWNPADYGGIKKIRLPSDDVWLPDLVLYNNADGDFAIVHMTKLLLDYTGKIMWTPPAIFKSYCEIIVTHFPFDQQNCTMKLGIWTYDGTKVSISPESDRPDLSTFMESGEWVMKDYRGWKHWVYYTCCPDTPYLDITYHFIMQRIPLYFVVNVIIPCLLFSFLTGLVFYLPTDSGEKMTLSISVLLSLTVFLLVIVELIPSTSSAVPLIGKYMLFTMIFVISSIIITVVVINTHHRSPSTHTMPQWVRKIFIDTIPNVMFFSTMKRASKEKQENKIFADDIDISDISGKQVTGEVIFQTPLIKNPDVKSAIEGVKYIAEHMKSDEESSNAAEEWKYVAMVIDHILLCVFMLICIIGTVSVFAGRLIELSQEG
Protocol description: equilibrium binding of [^3H]ACh
Condition description: IC50, inhibition of [^3H]ACh binding
pIC50: −log10 of the molar value.
Endpoint name: pIC50

Please report pIC50 for the following compound: CNC(=O)Oc1ccc2c(c1)[C@]1(C)CCN(C)[C@@H]1N2C
< 2.00

----------
Target: Torpedo nAChR (Tetronarce californica, UniProt P02710+P02712+P02714+P02718)
Protocol description: equilibrium binding of the ion channel blocker [^3H]tetracaine
Endpoint name: IC50 (mM)
# number only, unit mM dropped from output

Please report IC50 for the following compound: CNC(=O)Oc1ccc2c(c1)[C@]1(C)CCN(C)[C@@H]1N2C
5
